Assay system: Receptor-type tyrosine-protein phosphatase F (Homo sapiens)
Sequence (P10586 whole entry): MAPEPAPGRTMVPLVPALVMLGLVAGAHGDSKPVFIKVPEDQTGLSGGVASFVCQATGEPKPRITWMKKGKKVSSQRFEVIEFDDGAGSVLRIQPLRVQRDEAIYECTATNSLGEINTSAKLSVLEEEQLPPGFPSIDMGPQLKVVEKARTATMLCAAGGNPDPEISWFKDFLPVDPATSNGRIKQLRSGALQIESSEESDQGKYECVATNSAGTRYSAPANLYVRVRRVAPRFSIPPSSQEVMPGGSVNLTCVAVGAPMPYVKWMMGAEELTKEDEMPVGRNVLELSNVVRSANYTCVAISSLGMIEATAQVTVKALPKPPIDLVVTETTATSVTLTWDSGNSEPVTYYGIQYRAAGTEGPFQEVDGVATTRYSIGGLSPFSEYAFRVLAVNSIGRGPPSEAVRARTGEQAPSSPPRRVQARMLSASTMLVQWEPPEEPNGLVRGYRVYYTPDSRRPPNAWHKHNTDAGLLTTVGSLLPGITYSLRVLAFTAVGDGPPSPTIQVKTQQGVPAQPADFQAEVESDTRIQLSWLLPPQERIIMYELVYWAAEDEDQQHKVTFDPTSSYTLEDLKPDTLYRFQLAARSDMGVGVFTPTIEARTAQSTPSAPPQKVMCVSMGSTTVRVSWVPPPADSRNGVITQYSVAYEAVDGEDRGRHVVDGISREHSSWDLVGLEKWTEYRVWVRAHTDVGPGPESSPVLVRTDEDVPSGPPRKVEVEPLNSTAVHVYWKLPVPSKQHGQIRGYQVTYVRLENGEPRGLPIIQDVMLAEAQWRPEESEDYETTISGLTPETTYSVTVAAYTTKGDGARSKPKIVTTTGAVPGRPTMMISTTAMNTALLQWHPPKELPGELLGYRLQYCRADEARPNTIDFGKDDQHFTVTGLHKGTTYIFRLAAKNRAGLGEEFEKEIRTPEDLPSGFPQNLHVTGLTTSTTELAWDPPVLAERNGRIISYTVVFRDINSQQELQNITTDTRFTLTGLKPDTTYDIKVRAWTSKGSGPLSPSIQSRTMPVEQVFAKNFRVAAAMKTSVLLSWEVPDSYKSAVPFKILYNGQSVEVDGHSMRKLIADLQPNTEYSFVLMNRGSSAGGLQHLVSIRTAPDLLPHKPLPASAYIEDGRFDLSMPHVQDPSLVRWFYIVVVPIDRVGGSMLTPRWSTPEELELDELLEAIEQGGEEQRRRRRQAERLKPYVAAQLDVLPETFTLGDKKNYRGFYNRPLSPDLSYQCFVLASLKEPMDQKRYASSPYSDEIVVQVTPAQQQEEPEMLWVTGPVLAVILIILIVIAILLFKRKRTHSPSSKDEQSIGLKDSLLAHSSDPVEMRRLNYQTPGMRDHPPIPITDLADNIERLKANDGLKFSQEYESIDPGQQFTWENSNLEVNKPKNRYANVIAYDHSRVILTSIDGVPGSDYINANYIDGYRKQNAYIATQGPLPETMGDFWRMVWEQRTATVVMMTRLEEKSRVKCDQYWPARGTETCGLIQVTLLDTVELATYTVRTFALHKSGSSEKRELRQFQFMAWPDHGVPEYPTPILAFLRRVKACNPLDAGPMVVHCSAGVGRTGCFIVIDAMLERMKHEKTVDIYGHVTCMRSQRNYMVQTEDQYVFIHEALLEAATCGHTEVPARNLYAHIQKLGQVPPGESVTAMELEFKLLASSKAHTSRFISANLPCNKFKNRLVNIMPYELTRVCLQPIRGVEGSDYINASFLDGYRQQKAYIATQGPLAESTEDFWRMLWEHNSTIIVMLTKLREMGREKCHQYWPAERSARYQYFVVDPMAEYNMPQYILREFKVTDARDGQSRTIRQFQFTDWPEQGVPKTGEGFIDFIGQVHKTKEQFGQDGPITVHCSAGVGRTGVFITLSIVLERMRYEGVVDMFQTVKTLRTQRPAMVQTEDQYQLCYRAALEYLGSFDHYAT

>  <Structure string>
O=C(O)c1ccc(/C=N/OCc2ccc(-c3cccc(C(F)(F)P(=O)(O)O)c3)cc2)o1

>  <Assay system>
Receptor-type tyrosine-protein phosphatase F (Homo sapiens)

>  <IC50>
> 400 µM

$$$$

====

Assay system: Secreted effector protein (Yersinia pestis)
Sequence (O68720 whole entry): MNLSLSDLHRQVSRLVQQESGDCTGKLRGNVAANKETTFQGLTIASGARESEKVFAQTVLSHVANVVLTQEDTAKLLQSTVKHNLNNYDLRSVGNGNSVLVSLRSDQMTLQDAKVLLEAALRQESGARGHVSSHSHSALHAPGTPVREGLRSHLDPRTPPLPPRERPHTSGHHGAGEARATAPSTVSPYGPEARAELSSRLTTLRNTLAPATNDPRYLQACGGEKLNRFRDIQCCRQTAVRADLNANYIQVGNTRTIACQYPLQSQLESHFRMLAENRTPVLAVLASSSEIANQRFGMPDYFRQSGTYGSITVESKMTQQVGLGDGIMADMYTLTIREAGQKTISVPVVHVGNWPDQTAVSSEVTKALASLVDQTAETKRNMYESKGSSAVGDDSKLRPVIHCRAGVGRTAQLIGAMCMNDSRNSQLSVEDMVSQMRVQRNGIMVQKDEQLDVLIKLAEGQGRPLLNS
Measurement description: Inhibition of Yersinia pestis outer protein H expressed in Escherichia coli after 15 to 20 mins
pIC50: −log10 of the molar value.
Everything with pIC50 lower than 6 is 0.0; everything else, including exactly 6, is 1.0.

>  <Structure string>
O=P(O)(O)C(F)(F)c1cccc(-c2ccc(CO/N=C/c3ccoc3)cc2)c1

>  <Assigned class>
0.0

$$$$
>  <Structure string>
O=C(O)c1ccc(/C=N/OCc2ccc(-c3cccc(C(F)(F)P(=O)(O)O)c3)cc2)o1

>  <Assigned class>
1.0

$$$$
